Biological target: Human M4 (Homo sapiens)
Construct: Human or rat M4 cDNA, along with the chimeric G protein Gqi5, were transfected into Chinese hamster ovary (CHO-K1) cells; expressed in transfected cells; host or cells: CHO-K1 (Chinese hamster ovary, ATCC), stably co-expressing Gqi5
Sequence (P08173 1-479): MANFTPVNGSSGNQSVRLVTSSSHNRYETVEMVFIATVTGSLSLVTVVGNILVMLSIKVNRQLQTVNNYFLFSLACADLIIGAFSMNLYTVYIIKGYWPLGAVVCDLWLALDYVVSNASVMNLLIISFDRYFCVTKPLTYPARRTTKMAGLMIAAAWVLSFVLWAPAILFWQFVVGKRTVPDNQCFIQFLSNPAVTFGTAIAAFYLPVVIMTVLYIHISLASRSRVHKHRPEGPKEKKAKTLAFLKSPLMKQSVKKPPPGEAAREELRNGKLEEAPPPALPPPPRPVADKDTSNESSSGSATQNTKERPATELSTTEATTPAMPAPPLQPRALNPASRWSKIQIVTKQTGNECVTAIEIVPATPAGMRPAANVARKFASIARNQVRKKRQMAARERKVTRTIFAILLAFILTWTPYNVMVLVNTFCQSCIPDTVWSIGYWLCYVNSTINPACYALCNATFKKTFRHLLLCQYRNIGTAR
Experiment: mAChR M4 cell-based functional assay (calcium flux, decrease of EC80 acetylcholine response)
Settings: % ACh maximum at 30 μM; read-out: Human M4 Emin
MEASUREMENT_LABEL: remaining activity at 30 µM (%)
Value expressed in %; do not type the unit.

Reference set (8 entries):
Prompt: Given the compound CC(C)(C)CCN1C[C@H]2C[C@H](Nc3ncc(-c4cc(F)ccc4Cl)cn3)C[C@H]2C1 , what is its reported remaining activity at 30 µM?
Response: 3

Prompt: Tell me the measured remaining activity at 30 µM of [2H][C@@]1(Nc2nnc(-c3cccc(F)c3)cc2C(F)(F)F)C[C@H]2CN(CC3CCOCC3)C[C@H]2C1 , please.
Response: 3

Prompt: Consider the compound shown here: Cc1cnc(F)cc1-c1cc(C(F)(F)F)c(N[C@H]2C[C@@H]3CN(CC4CCOCC4)C[C@@H]3C2)nn1 What is its recorded remaining activity at 30 µM?
Response: 3

Prompt: Data request, read-out remaining activity at 30 µM, for COc1ccc(-c2cc(C(F)(F)F)c(N[C@H]3C[C@@H]4CN(CC5CCOCC5)C[C@@H]4C3)nn2)c(F)c1
Response: 3

Prompt: Any idea what its remaining activity at 30 µM is? The compound is Cc1cc(F)c(F)c(-c2cc(C(F)(F)F)c(N[C@H]3C[C@@H]4CN(CC5CCOCC5)C[C@@H]4C3)nn2)c1
Response: 3

Prompt: Consider the compound Cn1cc2cc(-c3cc(C#N)c(N[C@H]4C[C@@H]5CN(C[C@H]6CCOC6)C[C@@H]5C4)nn3)ccc2n1 and give its measured remaining activity at 30 µM.
Response: 5

Prompt: Find the recorded remaining activity at 30 µM belonging to Cc1ccc(F)cc1-c1cc(C(F)(F)F)c(N[C@H]2C[C@@H]3CN(CC4CCCOC4)C[C@@H]3C2)nn1 (single isomer, unassigned) [Example 120] and report it.
Response: 3

Prompt: Entry Fc1cccc(-c2cc(C(F)(F)F)c(N[C@H]3C[C@@H]4CN(Cc5ccccn5)C[C@@H]4C3)nn2)c1 : reported remaining activity at 30 µM = ?
Response: 2

Next:
Prompt: Given the compound [2H]C([2H])(C1CCOCC1)N1C[C@H]2C[C@H](Nc3nnc(-c4cc(C)ccc4C)cc3C(F)(F)F)C[C@H]2C1 , what is its reported remaining activity at 30 µM?
Response: 3

Prompt: Entry Cc1ccc(F)cc1-c1cc(C(F)(F)F)c(O[C@H]2C[C@@H]3CN(CC4CCOCC4)C[C@@H]3C2)nn1 has what remaining activity at 30 µM?
Response: 3

Prompt: // remaining activity at 30 µM lookup, key: Fc1ccc(C(F)(F)F)c(-c2cc(C(F)(F)F)c(N[C@H]3C[C@@H]4CN(CC5CCOCC5)C[C@@H]4C3)nn2)c1
Response: 3

Prompt: Tell me the measured remaining activity at 30 µM of COc1cc(F)c(-c2cc(C(F)(F)F)c(N[C@H]3C[C@@H]4CN(CC5CCOCC5)C[C@@H]4C3)nn2)cc1F , please.
Response: 3

Prompt: Give the measured remaining activity at 30 µM of Cn1cnc2ccc(-c3cc(C(F)(F)F)c(N[C@H]4C[C@@H]5CN(Cc6ccccn6)C[C@@H]5C4)nn3)cc21 .
Response: 4

----------
target: Human M4 (Homo sapiens); construct: Human or rat M4 cDNA, along with the chimeric G protein Gqi5, were transfected into Chinese hamster ovary (CHO-K1) cells; test: mAChR M4 cell-based functional assay (calcium flux, decrease of EC80 acetylcholine response); conditions: M4/Gqi5/CHO-K1 cells; decrease of response to EC80 acetylcholine
pIC50: −log10 of the molar value.
Short version: pIC50 at least 7 is YES, less is NO.

These recorded examples may help you get a feel for the data.
Prompt: Exam item: decide whether the reported pIC50 for Fc1ccc(Cl)c(-c2cc(C(F)(F)F)c(N[C@H]3C[C@@H]4CN(Cc5ccccn5)C[C@@H]4C3)nn2)c1 is at least 7.
Response: NO

Prompt: Assess whether reported pIC50 for [2H][C@@]1(Oc2cc(C(F)(F)F)c(-c3cc(F)ccc3C)nn2)C[C@H]2CN(CC3CCOCC3)C[C@H]2C1 sits at 7 or higher.
Response: NO

Prompt: Tell me whether pIC50 is at least 7 here: CCOc1ccc(-c2cc(C(F)(F)F)c(N[C@H]3C[C@@H]4CN(CC5CCOCC5)C[C@@H]4C3)nn2)c(F)c1F
Response: NO

Prompt: Given Cc1ccc(C(F)(F)F)cc1-c1cc(C(F)(F)F)c(N[C@H]2C[C@@H]3CN(CC4CCOCC4)C[C@@H]3C2)nn1 , state whether its pIC50 is at least 7.
Response: NO

Prompt: Is reported pIC50 greater than or equal to 7 here: Cc1ccc(F)cc1-c1cc(C(F)(F)F)c(N[C@H]2C[C@@H]3CN(CC4CCCOC4)C[C@@H]3C2)nn1 (stereo partly drawn) [Example 28]
Response: YES

Further cases:
Prompt: Does pIC50 meet or surpass 7 for FC(F)(F)c1cc(N2CCOCC2)nnc1N[C@H]1C[C@@H]2CN(CC3CCOCC3)C[C@@H]2C1 ?
Response: YES

----------
Target: Human M4 (Homo sapiens, UniProt P08173)
Construct: Human or rat M4 cDNA, along with the chimeric G protein Gqi5, were transfected into Chinese hamster ovary (CHO-K1) cells
Sequence (P08173 1-479): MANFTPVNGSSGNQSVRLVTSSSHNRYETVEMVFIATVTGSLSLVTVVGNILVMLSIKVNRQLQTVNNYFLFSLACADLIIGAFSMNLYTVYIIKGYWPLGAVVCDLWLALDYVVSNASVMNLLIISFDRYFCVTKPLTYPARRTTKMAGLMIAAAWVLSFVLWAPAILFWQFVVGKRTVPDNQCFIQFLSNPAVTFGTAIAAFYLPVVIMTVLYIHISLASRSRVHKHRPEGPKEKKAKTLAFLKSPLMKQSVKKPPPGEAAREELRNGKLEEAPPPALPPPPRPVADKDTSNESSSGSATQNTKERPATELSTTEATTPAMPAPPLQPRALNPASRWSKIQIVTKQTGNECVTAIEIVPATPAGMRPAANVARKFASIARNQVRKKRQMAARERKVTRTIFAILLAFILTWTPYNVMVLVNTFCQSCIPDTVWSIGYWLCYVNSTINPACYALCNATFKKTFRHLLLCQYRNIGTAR
Test: mAChR M4 cell-based functional assay (calcium flux, decrease of EC80 acetylcholine response)
Settings: M4/Gqi5/CHO-K1 cells; decrease of response to EC80 acetylcholine
MEASUREMENT_LABEL: pIC50
Friendly reminder that pIC50 comes from taking -log10 of the concentration in mol/L.

Solved cases (5 shown):
Prompt: Form field: reported pIC50 of FC(F)(F)c1cc(N2CCCC2)nnc1N[C@H]1C[C@@H]2CN(CC3CCOCC3)C[C@@H]2C1
Response: 8.52

Prompt: State the recorded pIC50 for this entry: Fc1ccc(C(F)(F)F)cc1-c1cc(C(F)(F)F)c(N[C@H]2C[C@@H]3CN(CC4CCOCC4)C[C@@H]3C2)nn1
Response: 6.20

Prompt: I have this compound here, Cc1c(F)cc(F)cc1-c1cc(C(F)(F)F)c(N[C@H]2C[C@@H]3CN(CC4CCOCC4)C[C@@H]3C2)nn1 , and I need its recorded pIC50.
Response: 6.42

Prompt: Requested field: pIC50. Item: FC(F)(F)c1cc(-c2ccccc2)nnc1N[C@H]1C[C@@H]2CN(CC3CCOCC3)C[C@@H]2C1
Response: 7.16

Prompt: Sample Fc1cccc(-c2cc(C(F)(F)F)c(N[C@H]3C[C@@H]4CN(Cc5ccccn5)C[C@@H]4C3)nn2)c1 — what was its pIC50?
Response: 6.33

Further cases:
Prompt: Form field: reported pIC50 of FC(F)(F)c1cc(-c2ccccc2)nnc1N[C@H]1C[C@@H]2CN(Cc3ccccn3)C[C@@H]2C1
Response: 6.46

Prompt: Quick check: pIC50 of O=C1Cc2cc(-c3cc(C(F)(F)F)c(N[C@H]4C[C@@H]5CN(CC6CCOCC6)C[C@@H]5C4)nn3)ccc2N1 ?
Response: 7.02

Prompt: State the recorded pIC50 for this entry: Fc1ccc(-c2cc(C(F)(F)F)c(N[C@H]3C[C@@H]4CN(CC5CCOCC5)C[C@@H]4C3)nn2)c(F)c1
Response: 6.54

Prompt: Find the recorded pIC50 belonging to Cc1nn(C)c(C)c1-c1cc(C(F)(F)F)c(N[C@H]2C[C@@H]3CN(CC4CCOCC4)C[C@@H]3C2)nn1 and report it.
Response: 6.74

Prompt: Would you mind telling me what pIC50 value was observed for Cc1ccc(F)cc1-c1cc(C(F)(F)F)c(N[C@H]2C[C@@H]3CN(CC4COCCO4)C[C@@H]3C2)nn1 (stereo partly shown) ?
Response: 8.35

Prompt: Requested field: pIC50. Item: COc1ccc(-c2cc(C(F)(F)F)c(N[C@H]3C[C@@H]4CN(CC5CCOCC5)C[C@@H]4C3)nn2)c(F)c1F
Response: 6.59

Prompt: Recorded pIC50 for FC(F)(F)c1ccccc1-c1cc(C(F)(F)F)c(N[C@H]2C[C@@H]3CN(CC4CCOCC4)C[C@@H]3C2)nn1 , please?
Response: 7.87

Prompt: GET /values?readout=pIC50&item= Cn1cc2cc(-c3cc(C(F)(F)F)c(N[C@H]4C[C@@H]5CN(C[C@@H]6CCOC6)C[C@@H]5C4)nn3)ccc2n1
Response: 6.79
